- System: Escherichia coli TOP10
- run description: shrunken log2 fold change of peptide-encoding DNA abundance (4.5 h post-induction vs induction); higher = less antimicrobial activity (less host growth inhibition)
- test parameters: time post-induction: 4.5 h; library: site-saturation at positions 5, 18, 19, 20
Rule: shrunken log2 fold change under -0.05 gives n, otherwise y.

The following sequences have reported results that may help.
**Query** Hi team, for RRIRDRPPRLPRPRPRPCPCPRP , is the recorded shrunken log2 fold change at or above -0.05?
**Result** n

**Query** Hi team, for RRIRMRPPRLPRPRPRPPFRPRP , is the recorded shrunken log2 fold change at or above -0.05?
**Result** y

**Query** Hi team, for RRIRTRPPRLPRPRPRPYTWPRP , is the recorded shrunken log2 fold change at or above -0.05?
**Result** n

**Query** Hi team, for RRIRKRPPRLPRPRPRPITHPRP , is the recorded shrunken log2 fold change at or above -0.05?
**Result** n

**Query** Hi team, for RRIRFRPPRLPRPRPRPRMPPRP , is the recorded shrunken log2 fold change at or above -0.05?
**Result** y

--- query ---
**Query** Hi team, for RRIRIRPPRLPRPRPRPRDTPRP , is the recorded shrunken log2 fold change at or above -0.05?
**Result** n

----------
- Test system: Escherichia coli TOP10
- run description: shrunken log2 fold change of peptide-encoding DNA abundance (4.5 h post-induction vs induction); higher = less antimicrobial activity (less host growth inhibition)
- test parameters: time post-induction: 4.5 h; library: site-saturation at positions 5, 18, 19, 20
Quick reference for shrunken log2 fold change among some sequences
The reply should be a number, written without any unit.

Looking up RRIRWRPPRLPRPRPRPLRNPRP , I see its shrunken log2 fold change listed as 0.847

Looking up RRIRIRPPRLPRPRPRPDFKPRP , I see its shrunken log2 fold change listed as 3.01

Looking up RRIRCRPPRLPRPRPRPKVMPRP , I see its shrunken log2 fold change listed as -0.184

Looking up RRIRWRPPRLPRPRPRPDIFPRP , I see its shrunken log2 fold change listed as -0.029

Looking up RRIRFRPPRLPRPRPRPSSGPRP , I see its shrunken log2 fold change listed as -0.0411

Looking up RRIRTRPPRLPRPRPRPADMPRP , I see its shrunken log2 fold change listed as -0.431

---
Looking up RRIRKRPPRLPRPRPRPREKPRP , I see its shrunken log2 fold change listed as -0.107

Looking up RRIRIRPPRLPRPRPRPIDGPRP , I see its shrunken log2 fold change listed as -0.248

Looking up RRIRQRPPRLPRPRPRPGKPPRP , I see its shrunken log2 fold change listed as 0.12

Looking up RRIRFRPPRLPRPRPRPLEIPRP , I see its shrunken log2 fold change listed as -0.0193

Looking up RRIRIRPPRLPRPRPRPALSPRP , I see its shrunken log2 fold change listed as 0.114

Looking up RRIRPRPPRLPRPRPRPQFYPRP , I see its shrunken log2 fold change listed as -0.592

Looking up RRIRMRPPRLPRPRPRPFHHPRP , I see its shrunken log2 fold change listed as -0.419

----------
- System: Escherichia coli TOP10
- run description: shrunken log2 fold change of peptide-encoding DNA abundance (4.5 h post-induction vs induction); higher = less antimicrobial activity (less host growth inhibition)
- test parameters: time post-induction: 4.5 h; library: site-saturation at positions 5, 18, 19, 20
Rule: shrunken log2 fold change under -0.08 gives N, otherwise Y.

The following sequences have reported results that may help.
**Query** Hi team, for RRIRQRPPRLPRPRPRPSPVPRP , is the recorded shrunken log2 fold change at or above -0.08?
**Result** Y

**Query** Hi team, for RRIRARPPRLPRPRPRPQNLPRP , is the recorded shrunken log2 fold change at or above -0.08?
**Result** N

**Query** Hi team, for RRIRDRPPRLPRPRPRPKVNPRP , is the recorded shrunken log2 fold change at or above -0.08?
**Result** N

---
**Query** Hi team, for RRIRDRPPRLPRPRPRPWSVPRP , is the recorded shrunken log2 fold change at or above -0.08?
**Result** Y

**Query** Hi team, for RRIRRRPPRLPRPRPRPNYFPRP , is the recorded shrunken log2 fold change at or above -0.08?
**Result** N

**Query** Hi team, for RRIRFRPPRLPRPRPRPIGVPRP , is the recorded shrunken log2 fold change at or above -0.08?
**Result** Y

**Query** Hi team, for RRIRERPPRLPRPRPRPESKPRP , is the recorded shrunken log2 fold change at or above -0.08?
**Result** N

**Query** Hi team, for RRIRMRPPRLPRPRPRPRSWPRP , is the recorded shrunken log2 fold change at or above -0.08?
**Result** Y

**Query** Hi team, for RRIRIRPPRLPRPRPRPGMHPRP , is the recorded shrunken log2 fold change at or above -0.08?
**Result** Y

**Query** Hi team, for RRIRQRPPRLPRPRPRPNHQPRP , is the recorded shrunken log2 fold change at or above -0.08?
**Result** N

**Query** Hi team, for RRIRRRPPRLPRPRPRPIPTPRP , is the recorded shrunken log2 fold change at or above -0.08?
**Result** Y

**Query** Hi team, for RRIRARPPRLPRPRPRPYTHPRP , is the recorded shrunken log2 fold change at or above -0.08?
**Result** N

**Query** Hi team, for RRIRSRPPRLPRPRPRPSPCPRP , is the recorded shrunken log2 fold change at or above -0.08?
**Result** Y

**Query** Hi team, for RRIRERPPRLPRPRPRPIQHPRP , is the recorded shrunken log2 fold change at or above -0.08?
**Result** N

**Query** Hi team, for RRIRSRPPRLPRPRPRPIKFPRP , is the recorded shrunken log2 fold change at or above -0.08?
**Result** Y

----------
- System: Escherichia coli TOP10
- run description: shrunken log2 fold change of peptide-encoding DNA abundance (4.5 h post-induction vs induction); higher = less antimicrobial activity (less host growth inhibition)
- test parameters: time post-induction: 4.5 h; library: site-saturation at positions 5, 18, 19, 20
Rule: shrunken log2 fold change under 0.1 gives class 0, otherwise class 1.

**Query** Hi team, for RRIRQRPPRLPRPRPRPPAPPRP , is the recorded shrunken log2 fold change at or above 0.1?
**Result** class 1

**Query** Hi team, for RRIRDRPPRLPRPRPRPKPEPRP , is the recorded shrunken log2 fold change at or above 0.1?
**Result** class 0

**Query** Hi team, for RRIRLRPPRLPRPRPRPKQHPRP , is the recorded shrunken log2 fold change at or above 0.1?
**Result** class 0

**Query** Hi team, for RRIRIRPPRLPRPRPRPERIPRP , is the recorded shrunken log2 fold change at or above 0.1?
**Result** class 0

**Query** Hi team, for RRIRLRPPRLPRPRPRPRHMPRP , is the recorded shrunken log2 fold change at or above 0.1?
**Result** class 0

**Query** Hi team, for RRIRFRPPRLPRPRPRPETDPRP , is the recorded shrunken log2 fold change at or above 0.1?
**Result** class 1

**Query** Hi team, for RRIRCRPPRLPRPRPRPYSTPRP , is the recorded shrunken log2 fold change at or above 0.1?
**Result** class 0

**Query** Hi team, for RRIRARPPRLPRPRPRPCYAPRP , is the recorded shrunken log2 fold change at or above 0.1?
**Result** class 0

**Query** Hi team, for RRIRCRPPRLPRPRPRPPQDPRP , is the recorded shrunken log2 fold change at or above 0.1?
**Result** class 1

**Query** Hi team, for RRIRWRPPRLPRPRPRPFASPRP , is the recorded shrunken log2 fold change at or above 0.1?
**Result** class 1

--- query ---
**Query** Hi team, for RRIRRRPPRLPRPRPRPRDHPRP , is the recorded shrunken log2 fold change at or above 0.1?
**Result** class 1

----------
Quick reference for shrunken log2 fold change among some sequences
- Test system: Escherichia coli TOP10;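 also: peptides expressed intracellularly from a pBAD plasmid library in pooled LB shake-flask culture, induced with 0.3% L-arabinose, DNA abundance read by NGS, three biological replicates, DESeq2 with apeglm shrinkage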
- run description: shrunken log2 fold change of peptide-encoding DNA abundance (4.5 h post-induction vs induction); higher = less antimicrobial activity (less host growth inhibition)
- test parameters: time post-induction: 4.5 h; library: site-saturation at positions 5, 18, 19, 20

Looking up RRIRRRPPRLPRPRPRPWFGPRP , I see its shrunken log2 fold change listed as -0.161

Looking up RRIRGRPPRLPRPRPRPYLWPRP , I see its shrunken log2 fold change listed as 0.146

Looking up RRIRGRPPRLPRPRPRPTWYPRP , I see its shrunken log2 fold change listed as 0.159

Looking up RRIRCRPPRLPRPRPRPDFVPRP , I see its shrunken log2 fold change listed as -0.196

---
Looking up RRIRTRPPRLPRPRPRPFPNPRP , I see its shrunken log2 fold change listed as -0.105

Looking up RRIRSRPPRLPRPRPRPYYRPRP , I see its shrunken log2 fold change listed as -0.0115

Looking up RRIRYRPPRLPRPRPRPAYDPRP , I see its shrunken log2 fold change listed as -0.236

Looking up RRIRFRPPRLPRPRPRPIMFPRP , I see its shrunken log2 fold change listed as -0.0164

Looking up RRIRNRPPRLPRPRPRPVSDPRP , I see its shrunken log2 fold change listed as -0.192

Looking up RRIRSRPPRLPRPRPRPWPKPRP , I see its shrunken log2 fold change listed as 0.228
